Let's look at some binders and their measured Top.
ASSAY_TARGET: T1, human G-protein-coupled receptor family C group 5 member D (GPRC5D) (human, UniProt Q9NZD1 1-345)
T1 construct: whole, on cells; also called human GPRC5D protein
T1 sequence (Q9NZD1 whole entry): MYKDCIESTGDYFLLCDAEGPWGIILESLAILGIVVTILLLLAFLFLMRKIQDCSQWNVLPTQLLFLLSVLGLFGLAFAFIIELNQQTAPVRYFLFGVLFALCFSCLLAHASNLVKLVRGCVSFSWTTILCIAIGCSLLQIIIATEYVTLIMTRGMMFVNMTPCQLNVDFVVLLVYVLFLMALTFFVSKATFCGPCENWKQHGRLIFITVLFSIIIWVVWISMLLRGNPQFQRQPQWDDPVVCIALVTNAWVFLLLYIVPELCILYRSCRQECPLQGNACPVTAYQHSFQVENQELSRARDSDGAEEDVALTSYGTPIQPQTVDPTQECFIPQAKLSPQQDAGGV
TEST_DESCRIPTION: FACS, CHO-K1/GPRC5D
Give only the figure.

Example entries begin here.
Please give the documented Top of 58-H1L2 (antibody, V domains shown, humanized 58F9G10, VH v1 x VL v2) VH: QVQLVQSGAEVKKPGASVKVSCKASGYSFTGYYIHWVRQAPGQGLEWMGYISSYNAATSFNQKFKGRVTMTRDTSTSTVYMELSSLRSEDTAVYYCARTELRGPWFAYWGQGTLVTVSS VL: DTQMTQSPSSLSASVGDRVTITCSASSSVSYMNWYQQKPGKAPKRLIYDTSKLASGVPSRFSGSGSGTDYTLTISSLQPEDFATYYCQQWSNNPLTFGQGTKLEIK
114000

Please give the documented Top of 58-H3L3 (antibody, V domains shown, humanized 58F9G10, VH v3 x VL v3) VH: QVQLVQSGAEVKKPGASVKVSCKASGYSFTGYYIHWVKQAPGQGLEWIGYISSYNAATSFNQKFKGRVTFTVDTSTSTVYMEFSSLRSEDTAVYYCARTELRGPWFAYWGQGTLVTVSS VL: DTQLTQSPSSLSASVGDRVTMTCSASSSVSYMNWYQQKPGKAPKRLIYDTSKLASGVPSRFSGSGSGTDYTLTISSMQPEDFATYYCQQWSNNPLTFGQGTKLEIK
97700

Please give the documented Top of 58-H3L2 (antibody, V domains shown, humanized 58F9G10, VH v3 x VL v2) VH: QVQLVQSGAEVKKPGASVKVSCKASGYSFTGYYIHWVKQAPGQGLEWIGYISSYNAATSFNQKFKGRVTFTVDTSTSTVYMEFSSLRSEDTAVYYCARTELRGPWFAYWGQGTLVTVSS VL: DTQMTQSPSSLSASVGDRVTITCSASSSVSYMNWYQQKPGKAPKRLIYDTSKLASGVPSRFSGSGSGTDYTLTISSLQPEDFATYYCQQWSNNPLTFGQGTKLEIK
105000

Please give the documented Top of 58-H4L2 (antibody, V domains shown, humanized 58F9G10, VH v4 x VL v2) VH: QVQLVQSGAEVKKPGASVKISCKASGYSFTGYYIHWVKQAPGQGLEWIGYISSYNAATSFNQKFKGRATFTVDTSTSTAYMEFSSLRSEDSAVYYCARTELRGPWFAYWGQGTLVTVSS VL: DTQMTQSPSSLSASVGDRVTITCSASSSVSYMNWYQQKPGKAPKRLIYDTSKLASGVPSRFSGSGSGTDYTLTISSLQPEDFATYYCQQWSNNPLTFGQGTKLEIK
105000

Now let's try a different one.
Please give the documented Top of 58F9G10-XI (antibody, V domains shown, also called 58F9G10 (chimeric); 58-XI) VH: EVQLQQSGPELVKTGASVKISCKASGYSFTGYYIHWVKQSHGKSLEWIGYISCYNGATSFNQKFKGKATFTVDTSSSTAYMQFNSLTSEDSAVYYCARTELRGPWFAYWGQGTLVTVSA VL: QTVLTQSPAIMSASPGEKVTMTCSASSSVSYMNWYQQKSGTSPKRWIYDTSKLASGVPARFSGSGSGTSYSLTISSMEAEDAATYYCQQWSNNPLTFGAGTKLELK
127000
